Origin of values: ChEMBL document CHEMBL3885861

Organism: Rattus norvegicus
test protocol: Open TG-GATES - Regimen: Single
Format: toxicity, organism-based, Sprague-Dawley
Parameters: regimen Single, gender Male, age 6 weeks
settings: in vivo, po, 300 mg/kg, 24 h, tissue Blood, route gavage, dose level Middle
outcome measure: MCHC

• COc1ccc2[nH]c([S+]([O-])Cc3ncc(C)c(OC)c3C)nc2c1 (centres undefined) = 34.1%
• CCOC(=O)CCC(=O)O[C@H]1[C@H](O[C@@H]2[C@@H](C)[C@H](O[C@H]3C[C@@](C)(OC)[C@@H](O)[C@H](C)O3)[C@@H](C)C(=O)O[C@H](CC)[C@@](C)(O)[C@H](O)[C@@H](C)C(=O)[C@H](C)C[C@@]2(C)O)O[C@H](C)C[C@@H]1N(C)C [ERYTHROMYCIN ETHYLSUCCINATE] = 33.4%
• NC(N)=Nc1nc(CSCCC(N)=NS(N)(=O)=O)cs1 = 35.6%

We next turn to a different compound, shown below.
Tell me the measured MCHC of COC1=CC(=O)C[C@@H](C)[C@]12Oc1c(Cl)c(OC)cc(OC)c1C2=O , please.
33.3%

----------
Exercise: state measured Fbg for each of the molecules provided.
Species: Rattus norvegicus
test protocol: Open TG-GATES - Regimen: Daily Repeat
Format: toxicity, organism-based, Sprague-Dawley
Design: regimen Daily Repeat, gender Male, age 6 weeks
settings: in vivo, po, 10 mg/kg, […], tissue Blood, route gavage, dose level Low, time 14 day
One number for each entry, in mg/dL.

Recorded results for 3 molecules are shown here.
* CC(C)OC(=O)C(C)(C)Oc1ccc(C(=O)c2ccc(Cl)cc2)cc1 [FENOFIBRATE] | 309.6
* CN(C)CCN(Cc1cccs1)c1ccccn1 | 297.6
* CN(C)CCCN1c2ccccc2CCc2ccccc21 [IMIPRAMINE] | 281.2

We next turn to a different molecule, shown below.
Tell me the measured Fbg of CC1=C(/C=C/C(C)=C/C=C/C(C)=C/CO)C(C)(C)CCC1 [RETINOL] , please.
295.4

----------
Species on record: Rattus norvegicus
test protocol: Open TG-GATES - Regimen: Single
Assay type: toxicity, organism-based, Sprague-Dawley
Design: regimen Single, gender Male, age 6 weeks
settings: in vivo, po, 100 mg/kg, 3 h, tissue Blood, route gavage, dose level Low
outcome measure: RBC (x10_4/ul)
Give bare numbers, in x10_4/ul.

• NC(N)=Nc1nc(CSCCC(N)=NS(N)(=O)=O)cs1 = 596.2
• COc1ccc2[nH]c([S+]([O-])Cc3ncc(C)c(OC)c3C)nc2c1 (centres undefined) = 603.6
• COC1=CC(=O)C[C@@H](C)[C@]12Oc1c(Cl)c(OC)cc(OC)c1C2=O = 600

We next turn to a different molecule, shown below.
Tell me the measured RBC of CCOC(=O)CCC(=O)O[C@H]1[C@H](O[C@@H]2[C@@H](C)[C@H](O[C@H]3C[C@@](C)(OC)[C@@H](O)[C@H](C)O3)[C@@H](C)C(=O)O[C@H](CC)[C@@](C)(O)[C@H](O)[C@@H](C)C(=O)[C@H](C)C[C@@]2(C)O)O[C@H](C)C[C@@H]1N(C)C [ERYTHROMYCIN ETHYLSUCCINATE] , please.
617.6
